Reported values: IC50 for PARP2 (Homo sapiens (Human)), one per item.
The reply should be a number in nM, with the unit left off.

Please review the following examples before continuing.
| mol smiles | system under test | unit annotation | IC50 |
| --- | --- | --- | --- |
| O=C(CCCc1nc2ccccc2c(=O)[nH]1)N[C@H]1CC[C@H](c2ncc(-c3ccccc3)o2)CC1 | PARP2 (Homo sapiens (Human)) | nM | 1070 |
| N#Cc1cc(O[C@H]2CC[C@H](NC(=O)CCCc3nc4ccccc4c(=O)[nH]3)CC2)ccc1Cl | PARP2 (Homo sapiens (Human)) | nM | 802 |

// switching to the query compound
Observed IC50 on PARP2 (Homo sapiens (Human)), entry O=C(CCCc1nc2ccccc2c(=O)[nH]1)N[C@H]1CC[C@H](Oc2ccccn2)CC1 , equals 1100

====

system under test: 6×HIS-tankyrase1 (1091-1325) (Homo sapiens (Human), UniProt O95271)
Sequence (O95271 1091-1325): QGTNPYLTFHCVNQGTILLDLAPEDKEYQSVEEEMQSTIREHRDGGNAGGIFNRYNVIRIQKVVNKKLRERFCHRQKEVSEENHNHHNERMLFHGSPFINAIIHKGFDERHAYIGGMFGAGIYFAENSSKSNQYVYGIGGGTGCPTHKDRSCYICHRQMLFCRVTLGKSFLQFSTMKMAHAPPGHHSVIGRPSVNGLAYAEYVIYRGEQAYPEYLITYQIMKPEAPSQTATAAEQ
experimental details: Tankyrase 1 biochemical assay (AlphaLisa, PARsylation)
condition: 400 nM NAD, 60 minutes at RT; read-out: TNKS1 IC50
recorded endpoint: pIC50
FYI, pIC50 means -log10 of a concentration in mol per litre.

| compound | system under test | recorded endpoint | meas value |
| --- | --- | --- | --- |
| O=C(CCCc1nc2ccccc2c(=O)[nH]1)N[C@H]1CC[C@H](c2ncc(-c3ccccc3)o2)CC1 [Example 95] | 6×HIS-tankyrase1 (1091-1325) (Homo sapiens (Human), UniProt O95271) | pIC50 | 10.01 |
| O=C(CCCc1nc2ccccc2c(=O)[nH]1)N1CCC(c2nnc(-c3ccc(F)c(Cl)c3)o2)CC1 [Example 25] | 6×HIS-tankyrase1 (1091-1325) (Homo sapiens (Human), UniProt O95271) | pIC50 | 8.02 |

# pIC50 measured on 6×HIS-tankyrase1 (1091-1325) (Homo sapiens (Human), UniProt O95271) for item O=C(CCSc1nc2ccccc2c(=O)[nH]1)N1CCC(c2nnc(-c3ccccc3)o2)CC1 [Example 83] = 7.50

Entry O=C(CCSc1nc2ccccc2c(=O)[nH]1)N[C@H]1CC[C@H](c2nnc(-c3cccc(Cl)c3)o2)CC1 [Example 118] , tested on 6×HIS-tankyrase1 (1091-1325) (Homo sapiens (Human), UniProt O95271), has a reported pIC50 of 9.97

Kindly note: 6×HIS-tankyrase1 (1091-1325) (Homo sapiens (Human), UniProt O95271), N#Cc1cccc2c1[nH]c(=O)n2C1CCN(C(=O)CCCc2nc3ccccc3c(=O)[nH]2)CC1 [Example 61] , pIC50 value reported: 9.06

So the reported pIC50 for N#Cc1ccc(O[C@H]2CC[C@H](NC(=O)CCSc3nc4c(c(=O)[nH]3)CCCC4)CC2)cc1 [Example 116] , on 6×HIS-tankyrase1 (1091-1325) (Homo sapiens (Human), UniProt O95271), turned out to be 9.78

GET /values?item= Cc1ccc2[nH]c(=O)n(C3CCN(C(=O)CCCc4nc5ccccc5c(=O)[nH]4)CC3)c2c1 [Example 7] &system= 6×HIS-tankyrase1 (1091-1325) (Homo sapiens (Human), UniProt O95271) returns pIC50: 8.16

Measured pIC50 for this entry O=c1[nH]c(CCNC(=O)[C@H]2CC[C@H](c3nnc(-c4ccccc4)o3)CC2)nc2ccccc12 [Example 1] on 6×HIS-tankyrase1 (1091-1325) (Homo sapiens (Human), UniProt O95271): 7.18

Short answer on 6×HIS-tankyrase1 (1091-1325) (Homo sapiens (Human), UniProt O95271) for O=C(CCCc1nc2ccccc2c(=O)[nH]1)N1CC=C(n2c(=O)[nH]c3ccccc32)CC1 [Example 46, trifluoroacetic acid] , pIC50: 7.75

Observed pIC50 on 6×HIS-tankyrase1 (1091-1325) (Homo sapiens (Human), UniProt O95271), entry O=C(CSc1nc2ccccc2c(=O)[nH]1)N[C@H]1CC[C@H](n2c(=O)[nH]c3ccc(Cl)cc32)CC1 [Example 102] , equals 9.93

====

IC50 overview
system under test: UniProt P09874
Sequence (P09874 whole entry): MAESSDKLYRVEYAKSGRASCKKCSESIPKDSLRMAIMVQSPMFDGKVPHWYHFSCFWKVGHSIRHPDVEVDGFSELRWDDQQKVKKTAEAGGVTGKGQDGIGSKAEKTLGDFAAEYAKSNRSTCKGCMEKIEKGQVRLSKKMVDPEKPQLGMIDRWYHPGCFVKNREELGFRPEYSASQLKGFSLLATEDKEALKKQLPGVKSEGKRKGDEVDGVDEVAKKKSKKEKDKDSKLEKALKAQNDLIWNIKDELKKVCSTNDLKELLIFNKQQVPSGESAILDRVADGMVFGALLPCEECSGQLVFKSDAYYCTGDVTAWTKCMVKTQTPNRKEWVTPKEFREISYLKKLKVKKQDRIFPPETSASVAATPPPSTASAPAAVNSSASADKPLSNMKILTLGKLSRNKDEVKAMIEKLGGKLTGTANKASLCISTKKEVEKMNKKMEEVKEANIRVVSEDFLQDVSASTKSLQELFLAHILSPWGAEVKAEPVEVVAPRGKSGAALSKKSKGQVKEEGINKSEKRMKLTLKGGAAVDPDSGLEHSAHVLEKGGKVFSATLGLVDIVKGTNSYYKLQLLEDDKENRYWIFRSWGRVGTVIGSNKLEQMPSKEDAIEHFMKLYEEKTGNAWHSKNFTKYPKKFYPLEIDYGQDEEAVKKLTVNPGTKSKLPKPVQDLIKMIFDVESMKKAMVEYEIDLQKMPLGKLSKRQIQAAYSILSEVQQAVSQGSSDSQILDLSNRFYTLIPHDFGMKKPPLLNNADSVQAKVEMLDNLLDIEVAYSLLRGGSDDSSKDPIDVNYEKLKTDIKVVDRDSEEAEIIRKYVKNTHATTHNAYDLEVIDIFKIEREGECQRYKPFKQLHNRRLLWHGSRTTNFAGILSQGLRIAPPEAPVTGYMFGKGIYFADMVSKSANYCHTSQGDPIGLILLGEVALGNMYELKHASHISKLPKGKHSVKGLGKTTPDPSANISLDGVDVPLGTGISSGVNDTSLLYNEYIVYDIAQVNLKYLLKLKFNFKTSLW
Respond numerically; units are µM and should not be typed.

| compound | recorded endpoint | unit annotation | meas value |
| --- | --- | --- | --- |
| O=C(CCCc1nc2ccccc2c(=O)[nH]1)N1CCN(c2nsc3ccccc23)CC1 [Example 69] | IC50 | µM | 1.76 |
| O=C(CCCc1nc2ccccc2c(=O)[nH]1)N1CCC(n2c(=O)[nH]c3cc(C(F)(F)F)ccc32)CC1 [Example 52, trifluoroacetic acid] | IC50 | µM | 3.83 |
| O=C(CCCc1nc2ccccc2c(=O)[nH]1)N1CCC(c2nnc(-c3ccccc3)o2)CC1 [Example 42] | IC50 | µM | 7.47 |

Data point: O=C(CCc1nc2ccccc2c(=O)[nH]1)N1CCC(c2nnc(-c3ccccc3)o2)CC1 [Example 98] ; IC50 = 3.46

Note to self: IC50 recorded for O=C(CCc1nc2ccccc2c(=O)[nH]1)N[C@H]1CC[C@H](c2nnc(-c3cnccn3)o2)CC1 [Example 142] was 5.47

Per the records, this compound ( O=C(CCCc1nc2ccccc2c(=O)[nH]1)N1CCC(n2c(=O)sc3ccccc32)CC1 [Example 50, trifluoroacetic acid] ) has IC50 equal to 10.7

# IC50 (compound: O=C(CCSCc1nc2ccccc2c(=O)[nH]1)N[C@H]1CC[C@H](c2nnc(-c3ccccc3)o2)CC1 [Example 92] ) is 2.27

====

// IC50 collected for 6×HIS-tankyrase 2 (946-1162) (Homo sapiens (Human), UniProt Q9H2K2)
The answer is to be given in nM; state only the numeric part.

Answered examples (5):
| compound | unit annotation | IC50 |
| --- | --- | --- |
| Cc1cccc(-c2nnc(C3CCN(C(=O)CCCc4nc5ccccc5c(=O)[nH]4)CC3)o2)c1 [Example 22] | nM | 4.13 |
| O=C(CCCc1nc2ccccc2c(=O)[nH]1)N1CCC(c2nnc(-c3ccc(Cl)cc3)o2)CC1 [Example 4] | nM | 2.06 |
| O=C(CCc1nc2ccccc2c(=O)[nH]1)N[C@H]1CC[C@H](n2c(=O)[nH]c3ccc(Cl)cc32)CC1 [Example 86] | nM | 0.347 |
| O=C(CCCc1nc2ccccc2c(=O)[nH]1)N[C@H]1CC[C@H](c2nnc(-c3ccc(F)c(Cl)c3)o2)CC1 [Example 35, 2,2,2-trifluoroacetate] | nM | 0.196 |
| O=C(CCSc1nc2ccccc2c(=O)[nH]1)N[C@H]1CC[C@H](c2nnc(-c3ccc(F)cc3)o2)CC1 [Example 117] | nM | 3.98 |

Next, consider the following compound.
Measured IC50 of O=C(CCCc1nc2ccccc2c(=O)[nH]1)N[C@H]1CC[C@H](Oc2cccc(Cl)c2)CC1 [Example 66] : 1.02

====

Reported pIC50, 6×HIS-tankyrase 2 (946-1162) (Homo sapiens (Human), UniProt Q9H2K2).
Convention used: pIC50 is expressed as -log10 of the molar concentration.

Sample records with pIC50:
| mol smiles | meas value |
| --- | --- |
| Cn1c(=O)n(C2CCN(C(=O)CCCc3nc4ccccc4c(=O)[nH]3)CC2)c2ccccc21 | 7.77 |
| O=C(CCCc1nc2ccccc2c(=O)[nH]1)N1CCC(n2c(=O)[nH]c3cc(F)ccc32)CC1 | 9.29 |
| O=C(CCCc1nc2ccccc2c(=O)[nH]1)N1CCC(c2nnc(-c3ccccc3Cl)o2)CC1 | 7.75 |
| N#Cc1ccc2c(c1)[nH]c(=O)n2[C@H]1CC[C@H](NC(=O)CCSc2nc3ccccc3c(=O)[nH]2)CC1 | 8.88 |
| N#Cc1cccc(O[C@H]2CC[C@H](NC(=O)CCCc3nc4ccccc4c(=O)[nH]3)CC2)c1 | 8.90 |
| O=C(CCSCc1nc2ccccc2c(=O)[nH]1)N[C@H]1CC[C@H](c2nnc(-c3ccccc3)o2)CC1 | 8.35 |
| O=C(CCCc1nc2ccccc2c(=O)[nH]1)N1CCC(c2nnc(-c3cccc(Cl)c3)o2)CC1 | 8.60 |
| COc1cccc(-c2nnc(C3CCN(C(=O)CCCc4nc5ccccc5c(=O)[nH]4)CC3)o2)c1 | 8.31 |

Field: next compound
pIC50 measured on O=C(CCCc1nc2ccccc2c(=O)[nH]1)N1CCC(N2C(=O)C(F)(F)c3ccccc32)CC1 = 7.54

====

system under test: 6×HIS-tankyrase1 (1091-1325) (Homo sapiens (Human), UniProt O95271)
experimental details: Tankyrase 1 biochemical assay (AlphaLisa, PARsylation)
condition: 400 nM NAD, 60 minutes at RT; read-out: TNKS1 IC50
recorded endpoint: IC50 (nM)
Supply the numeric figure in nM, leaving out any unit text.

| mol smiles | IC50 / nM |
| --- | --- |
| O=C(CCCc1nc2ccccc2c(=O)[nH]1)N[C@H]1CC[C@H](Oc2ccc(F)cc2)CC1 | 4.37 |
| N#Cc1ccccc1O[C@H]1CC[C@H](NC(=O)CCCc2nc3ccccc3c(=O)[nH]2)CC1 | 31.2 |

Kindly review the next compound as well.
For N#Cc1ccc2c(c1)[nH]c(=O)n2C1CCN(C(=O)CCCc2nc3ccccc3c(=O)[nH]2)CC1 the compound record lists IC50 as 0.783
